Tested on: HCT-15 colon
Test: NCI-60 one-dose screen, 48 h (100 = growth as untreated, 0 = no growth, -100 = all killed)
Conditions: 10 µM unless noted
The panel holds about 83,000 compounds, 20% with a hit somewhere; the sample as a whole holds those more often.
assay_readout: growth (%)
Kindly answer with a numeric value in %, unit omitted.

Illustrative cases are given below, each with its answer.
{"columns": ["compound", "unit_string", "growth"],
 "data": [
  ["CC(C)C1=C[C@@]23CC[C@@H]4[C@](C)(CCC[C@@]4(C)C(=O)N4CCCNCC4)[C@H]2C[C@@H]1[C@H]1C(=O)CCC(=O)[C@H]13", "%", 97.5],
  ["NC(=NCCCC1(c2ccccc2)CCCC1)Nc1ccc(Cl)cc1", "%", 28.9],
  ["O=S(=O)(Nc1ccc(Cl)c(F)c1)c1ccc(-c2cnc(C3CC3)o2)cc1", "%", 21.1]
]}

The value of growth measured for the compound `CCOc1ccc(-n2nc(C(=O)Nc3cc(OC)c(OC)c(OC)c3)nc2-c2cc(OC)c(OC)c(OC)c2)cc1` turned out to be 82.1

The value of growth measured for the compound `O=C1c2ccccc2C(=O)c2c(N=Nc3[nH]c(=S)[nH]c3O)cccc21` turned out to be 23.2

The value of growth measured for the compound `Cn1cc(-c2nonc2-c2cn(C)c3ccc(F)cc23)c2ccccc21` turned out to be 18.8

The value of growth measured for the compound `CC(=O)c1cc2c(N)c(C(=O)Nc3cccc(F)c3C)sc2nc1C` turned out to be 85

The value of growth measured for the compound `FC(F)(F)c1[nH]ncc1-c1nc2ccc3n[nH]c(C#Cc4cccnc4)c3c2c2c1CCCC2` turned out to be 36.1

The value of growth measured for the compound `CCOC(=O)c1c(C)oc2ncnc(N3CCN(C(=S)Nc4ccccc4)CC3)c12` turned out to be 90.6

The value of growth measured for the compound `CC(=O)c1nc2ccccc2n1CC(=O)c1cccc(Cl)c1` turned out to be 27.3

The value of growth measured for the compound `COc1ccc2cc(-c3nn(-c4ccc(C(=O)O)cc4)cc3CO)ccc2c1` turned out to be 98.1

The value of growth measured for the compound `COc1ccc(Nc2cc(C)nc(N3CCN(c4ccnc5cc(Cl)ccc45)CC3)n2)cc1` turned out to be 14.8

The value of growth measured for the compound C=CCSSc1ncnc2c1ncn2C1OC(CO)C(O)C1O (stereo not drawn) turned out to be 47.9

* * *

System: HOP-92 NSCLC
Assay: NCI-60 one-dose screen, 48 h (100 = growth as untreated, 0 = no growth, -100 = all killed)
Conditions: 10 µM unless noted
The panel holds about 83,000 compounds, 20% with a hit somewhere; the sample as a whole holds those more often.
Classification field. Basis: growth. Definitions: low = under 70%, mid = from 70% up to 80%, high = 80% and over

Field: example entries. Status: answers known.
{"columns": ["smiles_structure", "assayed_system", "cat"],
 "data": [
  ["CCOC(=O)c1c(CN2CCN(C)CC2)nc2ccc(Cl)cc2c1-c1ccccc1", "HOP-92 NSCLC", "low"],
  ["COc1cc2c(cc1-c1c(C)noc1C)ncc1nc(-c3ccccn3)n([C@H](C)COC(F)F)c12", "HOP-92 NSCLC", "low"],
  ["C=C1c2nc3ccccc3n2C=C(c2ccc(Cl)cc2)N1Cc1ccc(OC)cc1", "HOP-92 NSCLC", "mid"],
  ["CCN=C1C=CC(=C(c2ccc(N)cc2)c2ccc(N(CC)CC)c(C)c2)C=C1", "HOP-92 NSCLC", "low"],
  ["COc1ccc(-c2cc(NC(=O)Nc3ccc4ncsc4c3)no2)cc1", "HOP-92 NSCLC", "high"],
  ["CC(=O)Nc1ccc(-n2c(O)c(/C=N/NC(=O)Cc3ccccc3Nc3c(Cl)cccc3Cl)sc2=S)cc1", "HOP-92 NSCLC", "high"],
  ["O=C1c2ccccc2OC=C(c2ccccc2)N1CCCCNc1ccc(S(=O)(=O)Nc2ncccn2)cc1", "HOP-92 NSCLC", "mid"],
  ["COc1ccc(/C=C2\\Oc3cc(OCCCCN4CCCC4)ccc3C2=O)cc1", "HOP-92 NSCLC", "mid"]
]}

IN: Assign a category based on measured growth for `COc1cccc(-c2nc3sccn3c2-c2ccnc(NCCCNS(=O)(=O)c3cccc(Cl)c3)c2)c1` and give only the class name.
OUT: low

IN: Assign a category based on measured growth for `Clc1ccc2nc3nc4ccc[nH]c4cc3c2c1` and give only the class name.
OUT: high
